target-entity: human VPAC1 (Homo sapiens)
Sequence (P32241 31-457): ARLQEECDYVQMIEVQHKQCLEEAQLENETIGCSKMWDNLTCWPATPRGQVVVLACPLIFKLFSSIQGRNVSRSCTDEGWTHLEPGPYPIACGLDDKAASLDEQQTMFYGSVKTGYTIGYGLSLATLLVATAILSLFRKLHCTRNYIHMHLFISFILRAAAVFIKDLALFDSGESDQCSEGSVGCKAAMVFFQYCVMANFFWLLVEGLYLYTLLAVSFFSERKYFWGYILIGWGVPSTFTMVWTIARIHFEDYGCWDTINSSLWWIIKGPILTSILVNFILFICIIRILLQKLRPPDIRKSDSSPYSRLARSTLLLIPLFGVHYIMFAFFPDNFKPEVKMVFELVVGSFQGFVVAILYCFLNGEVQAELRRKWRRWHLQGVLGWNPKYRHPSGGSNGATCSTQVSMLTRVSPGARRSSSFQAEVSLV
assay-overview: Filter binding assay, membranes of cells transiently transfected with human VPAC1, 125I-labeled VIP tracer (Table 2)
Parameters: expressed in transfected cells
experimental-conditions: read-out: Human VPAC1 Receptor Binding
pIC50: −log10 of the molar value. Where no end group is shown, it is not given here. [ ]: non-standard residue; d: D form. The star is where a group is joined. hArg = N=C(N)NCCCC[C@H](N)C(=O)O; Cit = NC(=O)NCCC[C@H](N)C(=O)O; Hexanoyl = CCCCCC(=O)*; Aib = CC(C)(N)C(=O)O
In this section we review reported pIC50 values for a set of substances.
reported-property: pIC50

{"substance": "HSDAVFTDNYTRLRKQVAAKKYLQSIKNKRF [Agonist P34]", "target-entity": "human VPAC1 (Homo sapiens)", "qualifying-sign": "=", "measured": 7.10}
{"substance": "Hexanoyl-HSDAVFTDNYTRLR[Aib]QVAA[Aib]KYLQSIKNKRYGGPSSGAPPPS [Agonist P261]", "target-entity": "human VPAC1 (Homo sapiens)", "qualifying-sign": "=", "measured": 6.00}
{"substance": "Hexanoyl-HSDAVFTDNYTRLR[Aib]QLAAK[Aib]YLQSIKNKRYGGPSSGAPPPS [Agonist P284]", "target-entity": "human VPAC1 (Homo sapiens)", "qualifying-sign": "<", "measured": 5.52}
{"substance": "Hexanoyl-HSDAVFTDNYTRLRKQVALKKYLQSIKNKRYGGPSSGAPPPS [Agonist P155]", "target-entity": "human VPAC1 (Homo sapiens)", "qualifying-sign": "=", "measured": 6.64}
{"substance": "Hexanoyl-HSDAVFTDNYTRLRKQLAAKKYLQSIKNKRYGGPSSGAPPPS [Agonist P290]", "target-entity": "human VPAC1 (Homo sapiens)", "qualifying-sign": "=", "measured": 6.66}
{"substance": "Hexanoyl-HSDAVFTDNYTRLRKQVAALKYLQSIKNKRYGGPSSGAPPPS [Agonist P151]", "target-entity": "human VPAC1 (Homo sapiens)", "qualifying-sign": "=", "measured": 6.69}
{"substance": "Hexanoyl-HSDAVFTDNYTRLRFQVAAKKYLQSIKNKRYGGPSSGAPPPS [Agonist P180]", "target-entity": "human VPAC1 (Homo sapiens)", "qualifying-sign": "<", "measured": 5.52}
{"substance": "Hexanoyl-HSDAVFTDNYTRLR[Aib]QVAAVKYLQSIKNKRYGGPSSGAPPPS [Agonist P262]", "target-entity": "human VPAC1 (Homo sapiens)", "qualifying-sign": "<", "measured": 5.52}
{"substance": "Hexanoyl-HSDAVFTDNYTRLRKQVAAKKYLQSIKNSRGGPSSGAPPPS [Agonist P122]", "target-entity": "human VPAC1 (Homo sapiens)", "qualifying-sign": "=", "measured": 7.11}
{"substance": "Hexanoyl-HSDAVFTDNYTRLRKQVAAKKYWQSIKNKRYGGPSSGAPPPS [Agonist P230]", "target-entity": "human VPAC1 (Homo sapiens)", "qualifying-sign": "=", "measured": 6.18}
{"substance": "HSDAVFTDNYTRLRKQVAAKKYLQSIKNGRPSSGAPPPS [Agonist P92]", "target-entity": "human VPAC1 (Homo sapiens)", "qualifying-sign": "=", "measured": 7.13}
{"substance": "Hexanoyl-HSDAVFTDNYTRLR[Aib]QVAALKYLQSIKNKRYGGPSSGAPPPS [Agonist P265]", "target-entity": "human VPAC1 (Homo sapiens)", "qualifying-sign": "<", "measured": 5.52}
{"substance": "H-H[dA]DAVFTDNYTRLRKQVAAKKYLQSIKNKRYGGPSSGAPPPS [Agonist P47]", "target-entity": "human VPAC1 (Homo sapiens)", "qualifying-sign": "=", "measured": 6.91}
{"substance": "Hexanoyl-HSDAVFTDNYTRLRK(Ac)QVAAK(Ac)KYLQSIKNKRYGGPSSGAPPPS [Agonist P193]", "target-entity": "human VPAC1 (Homo sapiens)", "qualifying-sign": "=", "measured": 6.60}
{"substance": "Hexanoyl-HSDAVFTDNYTRLR[Aib]QAAA[Aib]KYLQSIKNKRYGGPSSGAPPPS [Agonist P324]", "target-entity": "human VPAC1 (Homo sapiens)", "qualifying-sign": "<", "measured": 5.52}
{"substance": "Hexanoyl-HSDAVFTDNYTRLRLQVAAKKYLQSIKNKRYGGPSSGAPPPS [Agonist P179]", "target-entity": "human VPAC1 (Homo sapiens)", "qualifying-sign": "=", "measured": 6.41}
{"substance": "Hexanoyl-HSDAVFTDNYTRLRKQVAAKKYLQVIKNKRYGGPSSGAPPPS [Agonist P116]", "target-entity": "human VPAC1 (Homo sapiens)", "qualifying-sign": "=", "measured": 6.43}
{"substance": "Hexanoyl-HSDAVFTDNYTRL[Aib]KQVAAAKYLQSIKNKRYGGPSSGAPPPS [Agonist P260]", "target-entity": "human VPAC1 (Homo sapiens)", "qualifying-sign": "=", "measured": 5.48}
{"substance": "Hexanoyl-HSDAVFTDNYTRLRRQVAAKKYLQSIKNKRYGGPSSGAPPPS [Agonist P176]", "target-entity": "human VPAC1 (Homo sapiens)", "qualifying-sign": "=", "measured": 7.03}
{"substance": "Hexanoyl-HSD[Aib]VFTDNYTRLRKQVAAKKYLQSIKNKRYGGPSSGAPPPS [Agonist P209]", "target-entity": "human VPAC1 (Homo sapiens)", "qualifying-sign": "=", "measured": 6.89}
{"substance": "Hexanoyl-HSDAVFTDNYTRLLAKVAAKKYLQSIKNKRYGGPSSGAPPPS [Agonist P135]", "target-entity": "human VPAC1 (Homo sapiens)", "qualifying-sign": "=", "measured": 6.60}
{"substance": "Hexanoyl-HSDAVFTDNYTRLRKQVAAKKYLQSYKNKRYGGPSSGAPPPS [Agonist P111]", "target-entity": "human VPAC1 (Homo sapiens)", "qualifying-sign": "=", "measured": 6.52}
{"substance": "Hexanoyl-HSDA[Aib]FTDNYTRLRKQVAAKKYLQSIKNKRYGGPSSGAPPPS [Agonist P212]", "target-entity": "human VPAC1 (Homo sapiens)", "qualifying-sign": "=", "measured": 6.70}
{"substance": "H-HSDAVFTDNYTRAKAKVAAKKYLQSIKNKRYGGPSSGAPPPS [Agonist P94]", "target-entity": "human VPAC1 (Homo sapiens)", "qualifying-sign": "=", "measured": 6.57}
{"substance": "Hexanoyl-HSDAVFTDNYTKLKKQVAAKKYLQSIKNKKYGGPSSGAPPPS [Agonist P103]", "target-entity": "human VPAC1 (Homo sapiens)", "qualifying-sign": "=", "measured": 6.64}
{"substance": "Hexanoyl-HSDAVFTDNYTRLRKQVAAKKYLQSWKNKRYGGPSSGAPPPS [Agonist P110]", "target-entity": "human VPAC1 (Homo sapiens)", "qualifying-sign": "=", "measured": 6.37}
{"substance": "Hexanoyl-HSDAVFTDNYTRLR[Aib]QLAA[Aib]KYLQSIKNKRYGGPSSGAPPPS [Agonist P291]", "target-entity": "human VPAC1 (Homo sapiens)", "qualifying-sign": "<", "measured": 5.52}
{"substance": "HSDAVFTDNYTRLRKQVAAKKYLQSIKN[hArg]RYGGPSSGAPPPS [Agonist P24]", "target-entity": "human VPAC1 (Homo sapiens)", "qualifying-sign": "=", "measured": 6.70}
{"substance": "Hexanoyl-HSDAVFTDNYTRLLAKLALQKYLQSIKNKRYGGPSSGAPPPS [Agonist P119]", "target-entity": "human VPAC1 (Homo sapiens)", "qualifying-sign": "<", "measured": 5.52}
{"substance": "Hexanoyl-HSDAVFTDNYTRL[Cit][Aib]QVAA[Aib]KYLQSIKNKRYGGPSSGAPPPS [Agonist P320]", "target-entity": "human VPAC1 (Homo sapiens)", "qualifying-sign": "<", "measured": 5.52}
{"substance": "Hexanoyl-HSDAVFTDNYTRLRKQVAAKKYLQSFKNKRYGGPSSGAPPPS [Agonist P106]", "target-entity": "human VPAC1 (Homo sapiens)", "qualifying-sign": "=", "measured": 6.93}
{"substance": "Hexanoyl-HSDAVFTDNYTRLRKQVAAKKWLQSIKNKRYGGPSSGAPPPS [Agonist P129]", "target-entity": "human VPAC1 (Homo sapiens)", "qualifying-sign": "=", "measured": 6.34}
{"substance": "Hexanoyl-HSDAVFTDNYTRLLAKVALQKYLQSIKNKRYGGPSSGAPPPS [Agonist P196]", "target-entity": "human VPAC1 (Homo sapiens)", "qualifying-sign": "=", "measured": 6.34}
